System: Glutamate receptor ionotropic, NMDA 3A (GRIN3A) ligand-binding domain
assay explanation: binders of NR3A ligand-binding domain, primary screen, biophysical, differential scanning fluorimetry, uHTS (AID 1259313)
study conditions: NR3A LBD differential scanning fluorimetry, at 25 µM, stronger effect = higher value, 0% = protein alone, 100% = glycine-bound protein
The whole screen tested about 340,000 compounds, of which about 8,500 (2.5%) were called active. Only a selection was taken, and actives are over-represented in it overall.
The reader will find reported Tm shift relative to glycine control values listed item by item below.
measure name: Tm shift relative to glycine control (%)

compound	measure name	readout value
O=C(CN(Cc1ccc(Br)cc1)S(=O)(=O)c1ccccc1)NCc1ccncc1	Tm shift relative to glycine control	0.51
CC(C)(C)NC(=O)NC(=O)COC(=O)C1c2ccccc2Oc2ccccc21	Tm shift relative to glycine control	-5.02
COC(=O)C1(O)CC(C(C)C)=NN1C(=O)c1ccc(Cl)cc1 (stereo unspecified)	Tm shift relative to glycine control	-4.26
Cc1cc(C(=O)COc2ccc(Br)cc2F)c(C)n1C1CC1	Tm shift relative to glycine control	1.06
CC1=C(C(=O)Nc2ccccc2)C(c2cccs2)C(C#N)=C(SCC#N)N1 (stereo unspecified)	Tm shift relative to glycine control	-11.3
O=C(NCCCN1CCOCC1)c1cn(-c2ccccc2)nc1-c1ccc(F)cc1	Tm shift relative to glycine control	-0.58

* * *

Tested on: Glutamate receptor ionotropic, NMDA 3A (GRIN3A) ligand-binding domain
assay explanation: binders of NR3A ligand-binding domain, primary screen, biophysical, differential scanning fluorimetry, uHTS (AID 1259313)
study conditions: NR3A LBD differential scanning fluorimetry, at 25 µM, 0% = protein alone, 100% = glycine-bound protein
Screen size: about 340,000 compounds; about 8,500 (2.5%) were called active.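 How the source made its calls: active means melting temperature shift of at least 10% of the positive control shift, at one fixed dose; inactive means the rest.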 This is one part of a sample in which actives are shown more often than they occur.
Outcomes: active, inactive

compound	category label
CC(C)Oc1ccc(S(=O)(=O)N2CCOCC2)cc1NC(=O)C1CCCC1	inactive
O=C(NCCCn1ccnc1)/C(=C\c1ccccc1F)NC(=O)c1ccccc1	inactive
O=C(N/N=C/c1c(Cl)[nH]c2ccccc12)c1sc2ccccc2c1Cl	active
CCCCn1c(N)c(N(CC)C(=O)c2ccccc2C(F)(F)F)c(=O)[nH]c1=O	inactive
CCC(=O)N1CCN=C1SCc1ccc(F)cc1	inactive
COc1ccc(NS(=O)(=O)c2ccc(NC(=O)c3ccc(N(C)S(C)(=O)=O)cc3)cc2)cc1	inactive
COc1ccc(OC)c(-c2csc(-c3cccs3)n2)c1	inactive
CNc1nc(Nc2ccc(C)c(Cl)c2)nc(N)c1[N+](=O)[O-]	active
Cc1ccccc1N(C(=O)Cc1cccs1)C(C(=O)NC1CCCCC1)c1cn(C)nc1C (centres undefined)	inactive
CCCCOC(=O)Cn1c(=O)n(CC(=O)OCCCC)c2cc(C)ccc21	active
C[C@H](OC(=O)n1ccnc1)[C@@H]1O[C@@]2(C)CCC[C@@H]1O2	inactive
COc1ccc2nc(Nc3nc(-c4ccncc4)cs3)sc2c1	active
CCOc1ccc(N/C(N)=N/c2nc(C)c(C)c(=O)[nH]2)cc1	inactive
O=C(Nc1ccncc1)c1cc2ccccc2o1	inactive
CC(=O)NCc1ccc(-c2csc(NC(=O)CCCc3nc4ccccc4c(=O)[nH]3)n2)cc1	inactive
CC[C@]12c3[nH]c4ccc(OC)cc4c3CCN1C(=O)C(CC(=O)NCCN1CCOCC1)C[C@@H]2C(=O)N1CCN(C(=O)C2CC2)CC1 (some centres undefined)	inactive
O=C(COC(=O)c1cc(=O)[nH]c2ccccc12)NCc1cccc(Cl)c1	inactive
O=C(Nc1ccnn1C1CCN(Cc2cccc(OCCO)c2)CC1)C1CCCC1	inactive
COCCNC(=S)N/N=C/c1c(C)[nH]c2ccccc12	inactive
COc1ccc(C(=O)Nc2ccc(S(=O)(=O)NC(C)C)cc2)cc1	active
COc1ccc(CNC(=O)CNC(=O)c2sc3ccccc3c2Cl)cc1OC	inactive
COc1ccc(Cl)cc1NC(=O)NC(C)C(C)(C)C (centres undefined)	inactive
CCCCCCC(=O)Nc1nc(C)c(-c2csc(Nc3cccc(OC)c3)n2)s1	inactive
NC(=O)C1CC(=O)N(c2ccc(OCC(=O)NCc3ccccc3)cc2)C1 (centres undefined)	inactive
COc1cccc(Nc2nc(N)c([N+](=O)[O-])c(NCc3ccco3)n2)c1	inactive
O=C1COc2ccc(C(=O)COC(=O)c3ccccc3Cl)cc2N1	inactive
Cn1c(N)c(C(=O)COC(=O)c2ccc3ccccc3c2)c(=O)n(C)c1=O	inactive
O=C(C1CC1)N1CCN=C1SCc1ccc(Cl)cc1	active
Cn1cccc1C(=O)NC(=O)COC(=O)Cc1coc2ccc3ccccc3c12	active
CC(=O)Nc1ccc(NC(=O)CCN2C(=O)C3CC=CCC3C2=O)cc1 (centres undefined)	inactive
COc1ccc(OC)c(-c2csc(NC(=O)C3=NNC(=O)CC3)n2)c1	inactive
Cc1ccc(Cl)c(OCC(=O)NN2CCN(C)CC2)c1	inactive
CC(C)NS(=O)(=O)c1ccc(NC(=O)c2cccnc2)cc1	inactive
O=C(Nn1cc(C(=O)N2CCN(c3ccccc3F)CC2)c2ccccc2c1=O)c1cnccn1	inactive

These data points were gathered from PubChem BioAssay AID1259313.
